testTarget: human GAL2 receptor (Homo sapiens, UniProt O43603)
Construct: expressed in transfected cells
Sequence (O43603 whole entry): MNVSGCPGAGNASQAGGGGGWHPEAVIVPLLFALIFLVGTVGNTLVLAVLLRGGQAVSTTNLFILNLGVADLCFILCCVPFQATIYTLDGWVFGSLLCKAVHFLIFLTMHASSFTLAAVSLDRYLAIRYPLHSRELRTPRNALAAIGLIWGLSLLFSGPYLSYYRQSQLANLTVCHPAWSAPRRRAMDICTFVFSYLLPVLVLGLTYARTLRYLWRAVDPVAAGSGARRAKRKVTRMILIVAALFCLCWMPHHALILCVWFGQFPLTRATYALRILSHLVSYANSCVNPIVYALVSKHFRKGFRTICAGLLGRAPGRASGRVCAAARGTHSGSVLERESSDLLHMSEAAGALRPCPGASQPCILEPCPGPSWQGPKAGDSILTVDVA
experiment: Radioligand binding at cloned human GAL2 receptor
studyConditions: pyrimidines, read-out: Ki GalR2
measuredMetric: Ki (µM)
Kindly answer with a numeric value in µM, unit omitted.

Look over these answered cases.
{"compound": "CCc1ccccc1N1CCN(c2nc(Nc3ccc(C)cc3)cc(N3CCCCC3)n2)CC1", "Ki, µM": 4.05}
{"compound": "Cc1ccc(Nc2cc(N3CCCCC3)nc(N3CCO[C@@H](c4ccccc4)[C@H]3C)n2)cc1", "Ki, µM": 4.23}
{"compound": "Cc1ccc(Nc2cc(N3CCCCC3)nc(N3CCCc4ccccc43)n2)cc1", "Ki, µM": 2.62}

Exam item: For the compound COCC1CCCCN1c1cc(Nc2ccc(C)cc2)nc(N2CCN(c3ncccc3C(F)(F)F)CC2)n1 (stereo not shown) , what Ki is on record?
Marked response: 2.46

###

Each entry below carries its reported Ki.
testTarget: human GAL2 receptor (Homo sapiens, UniProt O43603)
Construct: expressed in transfected cells
experiment: Radioligand binding at cloned human GAL2 receptor
studyConditions: pyrimidines, read-out: Ki GalR2

Look over these answered cases.
{"molecule": "Cc1ccc(Nc2cc(N3CCCCC3)nc(N3CCN(c4ncccn4)CC3)n2)cc1 [Example 37]", "measuredMetric": "Ki", "result": "0.903 µM"}
{"molecule": "COc1cc2c(cc1OC)CN(c1nc(Nc3ccc(C)cc3)cc(N3CCCCC3)n1)CC2 [Example 42]", "measuredMetric": "Ki", "result": "1.14 µM"}
{"molecule": "Cc1ccc(Nc2cc(N3CCCCC3)nc(Nc3ccc(Cl)cc3)n2)cc1 [Example 5]", "measuredMetric": "Ki", "result": "> 5 µM"}
{"molecule": "COc1ccc2[nH]cc(CCNc3nc(Nc4ccc(C)cc4)cc(N4CCCCC4)n3)c2c1 [Example 9]", "measuredMetric": "Ki", "result": "2.11 µM"}
{"molecule": "CCN(CCc1c[nH]c2ccccc12)c1nc(Nc2ccc(C)cc2)cc(N2CCCCC2)n1 [Example 18]", "measuredMetric": "Ki", "result": "0.543 µM"}

Exam item: For the molecule Cc1ccc(Nc2cc(N(C)C)nc(N3CCc4ccccc43)n2)cc1 [Example 75] , what Ki is on record?
Marked response: 2.46 µM

Exam item: For the molecule Cc1ccc(Nc2cc(N3CCCCC3)nc(N3CCN(c4cccc(C(F)(F)F)c4)CC3)n2)cc1 [Example 29] , what Ki is on record?
Marked response: 0.359 µM

Exam item: For the molecule FC(F)(F)c1cccnc1N1CCN(c2nc(NC3CC4CCC3C4)cc(N3CCCCC3)n2)CC1 (centres unmarked) [Example 36] , what Ki is on record?
Marked response: 0.09 µM

###

testTarget: human α2B adrenoceptor (Homo sapiens, UniProt P18089)
Construct: expressed in transfected cells
Sequence (P18089 whole entry): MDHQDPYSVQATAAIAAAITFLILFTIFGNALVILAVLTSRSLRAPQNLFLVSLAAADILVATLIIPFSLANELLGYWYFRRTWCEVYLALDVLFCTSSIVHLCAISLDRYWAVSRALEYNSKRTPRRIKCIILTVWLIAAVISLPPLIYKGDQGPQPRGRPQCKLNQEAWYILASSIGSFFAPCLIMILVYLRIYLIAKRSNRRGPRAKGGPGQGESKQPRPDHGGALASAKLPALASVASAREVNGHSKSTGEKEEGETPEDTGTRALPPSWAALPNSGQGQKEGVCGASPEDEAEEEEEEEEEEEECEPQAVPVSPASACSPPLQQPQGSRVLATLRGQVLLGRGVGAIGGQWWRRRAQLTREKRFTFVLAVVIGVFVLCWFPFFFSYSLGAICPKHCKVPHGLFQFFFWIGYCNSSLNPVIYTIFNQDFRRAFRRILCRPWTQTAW
experiment: Radioligand binding, α2B adrenergic receptor
studyConditions: read-out: hα2B Ki; Table 9
measuredMetric: pKi
Remember the convention: pKi equals -log10 of concentration in molar.

Exam item: Fill in the recorded pKi for this compound, with human α2B adrenoceptor (Homo sapiens, UniProt P18089) as test system: COC[C@@H]1[C@@H](c2ccccc2)OCCN1c1nc(Nc2ccc(C)cc2)cc(N2CCCCC2)n1 [Example 49]
Marked response: 4.60
